# credit: a collection of fitness landscapes (doi:10.1016/j.celrep.2020.107928)

B1: Caulobacter ParB omega fusion; a variant is named by its letters at X, in order, B8GW30 (parent)
chain: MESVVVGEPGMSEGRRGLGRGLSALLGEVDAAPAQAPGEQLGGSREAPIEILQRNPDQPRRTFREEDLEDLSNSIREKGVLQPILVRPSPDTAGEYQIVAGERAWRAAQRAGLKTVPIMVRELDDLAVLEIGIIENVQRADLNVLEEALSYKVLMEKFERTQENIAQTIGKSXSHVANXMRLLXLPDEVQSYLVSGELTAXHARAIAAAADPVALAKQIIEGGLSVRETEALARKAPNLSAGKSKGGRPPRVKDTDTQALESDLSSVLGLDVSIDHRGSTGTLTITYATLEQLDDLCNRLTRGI

# Variants of: B1
# procedure.text: one-hybrid fitness for binding NBS DNA (the Noc-binding site; scaled: cognate 1, non-cognate 0); higher = stronger binding
# reported.conditions: with NBS DNA site
Whole data set: some 81,000 sequences, median “one-hybrid fitness for binding NBS DNA” near -0.1, cut for the highest 2% near 0.36. The entries come from a sample that favours the highest values as a whole.
Label met when one-hybrid fitness for binding NBS DNA >= 0.5; otherwise not met.

>>> assigned_label("RCMR")
"not met"
>>> assigned_label("RCRD")
"not met"

Exam item: decide whether the reported one-hybrid fitness for binding NBS DNA for RHMP is at least 0.5.
not met

Please indicate if the recorded one-hybrid fitness for binding NBS DNA for RCIS meets or exceeds 0.5.
not met

Determine whether this variant has one-hybrid fitness for binding NBS DNA no lower than 0.5: MFRF
not met

In plain terms: is recorded one-hybrid fitness for binding NBS DNA at least 0.5 for RLMR ?
not met

Reported one-hybrid fitness for binding NBS DNA at or above 0.5? RHGN
not met
